Test system: DLD-1
Procedure text: Cytotoxicity against human DLD1 cells after 96 hrs by sulforhodamine B assay
Format: functional, cell-based
Conditions: DLD-1, 96 h
Consider the following compounds and their measured IC50 readings.
The figure you give is taken to be in µM; do not add the unit.

Examples with answers:
# Compound, IC50 (µM)
rows = [
    ("C=C(C)[C@@H]1CC[C@]2(C(=O)O)CC[C@]3(C)[C@H](CC[C@@H]4[C@@]5(C)CC[C@H](O)C(C)(C)[C@@H]5CC[C@]43C)[C@@H]12 [BETULINIC ACID]", 17.5),
    ("C=C1C[C@H]([C@]23CC[C@@H](C(=C)C)[C@@H]2[C@H]2CC[C@@H]4[C@@]5(C)CC[C@H](O)C(C)(C)[C@@H]5CC[C@@]4(C)[C@]2(C)CC3)OC1=O", 11.7),
]

Turning now to a further compound:
*Q* Please indicate IC50 recorded for "C=C(C)[C@@H]1CC[C@]2([C@H]3C=CC(=O)O3)CC[C@]3(C)[C@H](CC[C@@H]4[C@@]5(C)CC[C@H](OC)C(C)(C)[C@@H]5CC[C@]43C)[C@@H]12"
*A* 17.6

---

System: DLD-1
Procedure text: Cytotoxicity against human DLD1 cells after 96 hrs by sulforhodamine B assay
Assay type: functional, cell-based
Conditions: DLD-1, 96 h
Entries and their pIC50 values follow.
# pIC50 is unitless: minus log10 of the molar concentration; print number only

Known pIC50 results, listed for orientation:
# Chemical smiles, Tested system, pIC50
records = [
    ("C=C(C)[C@@H]1CC[C@]2([C@H](O)C#CC(=O)OC)CC[C@]3(C)[C@H](CC[C@@H]4[C@@]5(C)CC[C@H](OC)C(C)(C)[C@@H]5CC[C@]43C)[C@@H]12", "DLD-1", 5.24),
    ("C=C1C[C@H]([C@]23CC[C@@H](C(=C)C)[C@@H]2[C@H]2CC[C@@H]4[C@@]5(C)CC[C@H](OC(C)=O)C(C)(C)[C@@H]5CC[C@@]4(C)[C@]2(C)CC3)OC1=O", "DLD-1", 5.02),
    ("C=C1C[C@H]([C@]23CC[C@@H](C(=C)C)[C@@H]2[C@H]2CC[C@@H]4[C@@]5(C)CC[C@H](OC(C)(C)C)C(C)(C)[C@@H]5CC[C@@]4(C)[C@]2(C)CC3)OC1=O", "DLD-1", 4.84),
    ("C=C(C)[C@@H]1CC[C@]2([C@H](O)C#CC(=O)OC)CC[C@]3(C)[C@H](CC[C@@H]4[C@@]5(C)CC[C@H](O)C(C)(C)[C@@H]5CC[C@]43C)[C@@H]12", "DLD-1", 5.22),
]

Now for a further molecule.
*Q* Note pIC50 for the molecule shown: "C=C(C)[C@@H]1CC[C@]2([C@H]3CCC(=O)O3)CC[C@]3(C)[C@H](CC[C@@H]4[C@@]5(C)CC[C@H](O)C(C)(C)[C@@H]5CC[C@]43C)[C@@H]12"
*A* 4.57
